Tested on: PC-3
Test: Antiproliferative activity against human PC3 cells assessed as reduction in cell viability incubated for 5 days by Cell-titer Glo reagent based assay
Format: functional
Conditions: Homo sapiens, PC-3, 120 h
READOUT LABEL: IC50 (nM)
Form entry: value (nM) — number only.

{"COMPOUND": "O=C(NCCCc1ccccc1)c1ccc(NC(=O)N2Cc3ccccc3C2)cc1", "UOM": "nM", "REPORTED MEASUREMENT": 21}
{"COMPOUND": "O=C(Nc1ccc(C2=CCN(C(=O)c3ccccc3)CC2)cc1)N1Cc2ccccc2C1", "UOM": "nM", "REPORTED MEASUREMENT": 8.1}
{"COMPOUND": "O=C(Nc1ccc(C2CCN(S(=O)(=O)C3CC3)CC2)cc1)N1Cc2ccc(F)cc2C1", "UOM": "nM", "REPORTED MEASUREMENT": 6.5}

Let's switch to this compound now.
Ask: Given O=C(/C=C/c1cccnc1)NCCCCC1CCN(C(=O)c2ccccc2)CC1 [DAPORINAD] , state its recorded IC50.
Result: 5.7
